Origin of values: PubChem BioAssay (NCI)

Below, each entry is listed alongside its reported TGI.
Tested on: ACHN renal
assay-summary: NCI tumour cell line growth inhibition, 48 h
endpoint-label: TGI

>>> result("O=c1c2ccccc2nc(N/N=C/c2ccc([N+](=O)[O-])cc2)n1-c1ccccc1")
"62.9 µM"
>>> result("COc1cc(C2c3cc4c(cc3OC(O)C2C)OCO4)cc(OC)c1OC (configuration not stated)")
"> 88.1 µM"
>>> result("CC(C)C1(NC(=O)C2CC3c4cccc5[nH]cc(c45)CC3N(C)C2)OC2(O)C3CCCN3C(=O)C(Cc3ccccc3)N2C1=O (configuration not stated)")
"> 100 µM"
>>> result("Cc1cc(C)c2c(c1)C/C(=C\\c1cccc(C)c1C(=O)O)C2=O")
"> 100 µM"
>>> result("O=C1C(N2CCN(CCOCCO)CC2)=C(Cl)C(=O)c2ncccc21")
"33.4 µM"
>>> result("O=S(=O)(/N=S(/Nc1ccccc1)C(F)(F)Cl)c1ccccc1 (configuration not stated)")
"> 100 µM"
>>> result("Cc1nn(C)c2ncnc(N/N=C/c3cccc(O)c3O)c12")
"> 32.3 µM"
>>> result("Brc1cc(C2OCCCO2)ccc1OCc1ccccc1")
"> 100 µM"
>>> result("Cc1cc2c(=O)c3ccc(Cl)cc3[nH]c2c(C(N)=O)c1C")
"> 100 µM"
>>> result("CCOC(=O)C1CCC(=O)N1C(=O)c1cccc(Cl)c1 (configuration not stated)")
"> 100 µM"
>>> result("Clc1ccc(-c2nn3c(COc4cccc(OCc5nnc6sc(-c7ccc(Cl)cc7)nn56)c4)nnc3s2)cc1")
"68.4 µM"
>>> result("Nc1c(C(=O)c2cccc(C(O)CO)c2)cnn1-c1ccc(F)cc1 (configuration not stated)")
"> 25 µM"
